So I've got a bunch of molecules here, and I need their logD at 1 h values.
Assay: physchem
Settings: 1-octanol/PBS, pH 7.4
Answers are plain numbers.

// solved cases for logD at 1 h follow
O=S(=O)(Nc1cscn1)c1cc(Cl)c(NCc2cc(CN3CCC3)ccc2F)cc1F
1.4
C[C@H](Nc1cc(F)c(S(=O)(=O)Nc2cscn2)cc1Cl)c1cc(CN2CCC2)ccc1F
1.5

Read the next record carefully.
Field logD at 1 h (entry `COc1ccc(F)c([C@H](C)Nc2cc(F)c(S(=O)(=O)Nc3cscn3)cc2Cl)c1` ) reads 3.4
